Recorded measurements of EC1.5 (concentration giving 1.5-fold activation), one per entry
Target: SIRT1 (Homo sapiens)
Test: Mass spectrometry based assay to identify modulators of SIRT1 activity (deacetylation of p53-based acetylated peptide substrate)
Format: biochemical

>  <compound>
CCN1CCCN(C(=O)Nc2ccnc(C)c2)c2nc(-c3cccc(Cl)c3)ccc21 [Compound 795]

>  <reported.measurement>
< 1000 nM

$$$$
>  <compound>
O=C(Nc1ccncc1F)N1CCOc2ncc(-c3cccc(C(F)(F)F)c3)nc21 [Compound 724]

>  <reported.measurement>
1000 to 25000 nM

$$$$

[Q] Give me measured EC1.5 (concentration giving 1.5-fold activation), please, for this compound: O=C1CCN(C(=O)Nc2ccccn2)c2nc(-c3cccc(C(F)(F)F)c3)ccc21 [Compound 729]
[A] 1000 to 25000 nM

[Q] Give me measured EC1.5 (concentration giving 1.5-fold activation), please, for this compound: COc1cc(NC(=O)N2CCCOc3ccc(-c4cccc(Cl)c4)nc32)nc(OC)n1 [Compound 873]
[A] < 1000 nM

###

Biological target: SIRT1 (Homo sapiens, UniProt Q96EB6)
Assay: Mass spectrometry based assay to identify modulators of SIRT1 activity (deacetylation of p53-based acetylated peptide substrate)
Format: biochemical
Settings: SIRT1 activation

>  <compound>
Cc1cc(NC(=O)N2CCCOc3ccc(-c4cccc(F)c4)nc32)ccn1 [Compound 582]

>  <tgt>
SIRT1 (Homo sapiens, UniProt Q96EB6)

>  <EC1.5>
B (EC1.5 1-25 μM)

$$$$
>  <compound>
Cc1cc(NC(=O)N2CCOc3ccc(-c4ccc5c(c4)CCO5)nc32)cc(C)n1 [Compound 574]

>  <tgt>
SIRT1 (Homo sapiens, UniProt Q96EB6)

>  <EC1.5>
A (EC1.5<1.0 μM)

$$$$
>  <compound>
O=C(Nc1ncccc1F)N1CCOc2ccc(-c3cccc(C(F)(F)F)c3)nc21 [Compound 568]

>  <tgt>
SIRT1 (Homo sapiens, UniProt Q96EB6)

>  <EC1.5>
B (EC1.5 1-25 μM)

$$$$
>  <compound>
O=C(Nc1ccncn1)N1CCCOc2ccc(-c3cccc(Cl)c3)nc21 [Compound 625]

>  <tgt>
SIRT1 (Homo sapiens, UniProt Q96EB6)

>  <EC1.5>
A (EC1.5<1.0 μM)

$$$$

###

Target: SIRT1 (Homo sapiens, UniProt Q96EB6)
Sequence (Q96EB6 1-747): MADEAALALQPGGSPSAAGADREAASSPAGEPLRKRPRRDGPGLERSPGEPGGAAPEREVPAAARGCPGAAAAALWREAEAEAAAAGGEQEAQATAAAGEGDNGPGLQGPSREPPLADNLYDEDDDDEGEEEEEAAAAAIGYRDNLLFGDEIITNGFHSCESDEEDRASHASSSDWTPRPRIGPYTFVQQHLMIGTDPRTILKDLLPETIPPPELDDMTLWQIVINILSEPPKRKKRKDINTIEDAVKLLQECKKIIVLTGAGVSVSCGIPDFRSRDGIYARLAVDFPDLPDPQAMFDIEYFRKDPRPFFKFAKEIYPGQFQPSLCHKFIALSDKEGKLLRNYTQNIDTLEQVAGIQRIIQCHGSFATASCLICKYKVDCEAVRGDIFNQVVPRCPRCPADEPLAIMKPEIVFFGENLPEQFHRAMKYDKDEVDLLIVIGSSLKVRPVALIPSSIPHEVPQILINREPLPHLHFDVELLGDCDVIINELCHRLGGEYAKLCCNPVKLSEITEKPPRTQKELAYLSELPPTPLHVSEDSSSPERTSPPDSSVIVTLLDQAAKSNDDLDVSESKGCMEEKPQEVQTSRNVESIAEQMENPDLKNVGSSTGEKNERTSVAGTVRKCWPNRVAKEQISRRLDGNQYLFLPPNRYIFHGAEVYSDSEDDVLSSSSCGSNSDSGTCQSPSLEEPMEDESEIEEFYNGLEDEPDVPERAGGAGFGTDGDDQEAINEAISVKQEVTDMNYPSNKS
Assay: Mass spectrometry based assay to identify modulators of SIRT1 activity (deacetylation of p53-based acetylated peptide substrate)
Type: biochemical
From the text: A mass spectrometry based assay was used to identify modulators of SIRT1 activity. The mass spectrometry based assay utilizes a peptide having 20 amino acid residues as follows: Ac-EE-K(biotin)-GQSTSSHSK(Ac)NleSTEG-K(5TMR)-EE-NH2 (SEQ ID NO: 1) wherein K(Ac) is an acetylated lysine residue and Nle is a norleucine. The peptide is labeled with the fluorophore 5TMR (excitation 540 nm/emission 580 nm) at the C-terminus. The sequence of the peptide substrate is based on p53 with several modifications. […]
Recorded measurements of EC1.5 (concentration giving 1.5-fold activation), one per entry

>  <molecule>
Cn1ccc(NC(=O)N2CCCOc3ccc(-c4cccc(Cl)c4)nc32)n1

>  <reported.measurement>
1000 to 25000 nM

$$$$
>  <molecule>
Cc1cccnc1NC(=O)N1CCCOc2ccc(-c3cccc(Cl)c3)nc21

>  <reported.measurement>
> 25000 nM

$$$$
>  <molecule>
Cc1cc(NC(=O)N2CCOc3c(N(C)C)nc(-c4cccc(F)c4)nc32)cc(C)n1

>  <reported.measurement>
< 1000 nM

$$$$
>  <molecule>
Cc1cc(NC(=O)N2CCOc3ncc(-c4cccc(C(F)(F)F)c4)nc32)cc(C)n1

>  <reported.measurement>
< 1000 nM

$$$$

[Q] Give me measured EC1.5 (concentration giving 1.5-fold activation), please, for this molecule: CC1CCN(C(=O)Nc2ccncn2)c2nc(-c3cccc(C(F)(F)F)c3)ccc21 (stereo not drawn)
[A] < 1000 nM

[Q] Give me measured EC1.5 (concentration giving 1.5-fold activation), please, for this molecule: `O=C(Nc1ccc(F)cn1)N1CCCCc2ccc(-c3cccc(Cl)c3)nc21`
[A] > 25000 nM

###

Target: SIRT1 (Homo sapiens)
Sequence (Q96EB6 1-747): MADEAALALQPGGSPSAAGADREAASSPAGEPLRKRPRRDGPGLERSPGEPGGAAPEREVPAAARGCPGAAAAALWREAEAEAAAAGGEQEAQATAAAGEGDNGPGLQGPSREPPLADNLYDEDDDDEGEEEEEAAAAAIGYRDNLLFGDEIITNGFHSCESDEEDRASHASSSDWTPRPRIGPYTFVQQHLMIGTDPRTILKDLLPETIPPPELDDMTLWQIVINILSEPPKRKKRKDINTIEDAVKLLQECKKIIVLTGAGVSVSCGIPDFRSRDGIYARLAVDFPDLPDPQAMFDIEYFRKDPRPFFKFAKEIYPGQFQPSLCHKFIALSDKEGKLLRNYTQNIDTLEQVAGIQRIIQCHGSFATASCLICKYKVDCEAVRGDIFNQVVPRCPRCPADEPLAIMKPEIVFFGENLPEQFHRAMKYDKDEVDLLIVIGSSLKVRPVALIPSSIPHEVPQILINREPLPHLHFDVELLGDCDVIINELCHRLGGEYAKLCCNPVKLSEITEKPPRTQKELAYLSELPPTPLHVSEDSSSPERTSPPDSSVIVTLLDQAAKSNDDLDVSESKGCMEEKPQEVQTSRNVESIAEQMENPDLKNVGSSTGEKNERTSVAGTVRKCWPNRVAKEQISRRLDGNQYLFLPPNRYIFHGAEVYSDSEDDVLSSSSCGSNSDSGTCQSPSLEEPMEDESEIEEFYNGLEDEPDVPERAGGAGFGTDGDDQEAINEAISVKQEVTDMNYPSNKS
Test: Mass spectrometry based assay to identify modulators of SIRT1 activity (deacetylation of p53-based acetylated peptide substrate)
Format: biochemical
Conditions: SIRT1 activation
Description: A mass spectrometry based assay was used to identify modulators of SIRT1 activity. The mass spectrometry based assay utilizes a peptide having 20 amino acid residues as follows: Ac-EE-K(biotin)-GQSTSSHSK(Ac)NleSTEG-K(5TMR)-EE-NH2 (SEQ ID NO: 1) wherein K(Ac) is an acetylated lysine residue and Nle is a norleucine. The peptide is labeled with the fluorophore 5TMR (excitation 540 nm/emission 580 nm) at the C-terminus. The sequence of the peptide substrate is based on p53 with several modifications. […]
quantity.name: EC1.5

Here is how some compounds turned out for EC1.5.
>  <compound>
Cc1cncc(NC(=O)N2CCOc3c(C)cc(-c4cccc(Cl)c4)nc32)c1

>  <reported.measurement>
A (EC1.5<1.0 μM)

$$$$
>  <compound>
CN1C(=O)CN(C(=O)NC2CCOC2=O)c2nc(-c3cccc(C(F)(F)F)c3)ccc21 (centres unmarked)

>  <reported.measurement>
C (EC1.5>25 μM)

$$$$
>  <compound>
Cc1csc(NC(=O)N2CC(=O)N(C)c3ccc(-c4cccc(C(F)(F)F)c4)nc32)n1

>  <reported.measurement>
B (EC1.5 1-25 μM)

$$$$
>  <compound>
CC1(C)CN(C(=O)Nc2cccnc2)c2nc(-c3cccc(CN4CCCC4)c3)ccc2O1

>  <reported.measurement>
B (EC1.5 1-25 μM)

$$$$

[Q] Give me measured EC1.5, please, for this compound: `O=C(Nc1ccncc1)N1CCOc2ccc(-c3ccccc3F)nc21`
[A] B (EC1.5 1-25 μM)

[Q] Give me measured EC1.5, please, for this compound: `O=C(Nc1cccc(CN2CCOCC2)n1)N1CCOc2ccc(-c3cccc(C(F)(F)F)c3)nc21`
[A] A (EC1.5<1.0 μM)

[Q] Give me measured EC1.5, please, for this compound: `O=C(Nc1ccnc(N2CCC2)c1)N1CCCc2ccc(-c3cccc(F)c3)nc21`
[A] A (EC1.5<1.0 μM)

[Q] Give me measured EC1.5, please, for this compound: `O=C(NC1(c2ccccn2)CC1)N1CCOc2ccc(-c3cccc(C(F)(F)F)c3)nc21`
[A] C (EC1.5>25 μM)

[Q] Give me measured EC1.5, please, for this compound: `Cc1csc(NC(=O)N2CCCOc3ccc(-c4cccc(N5CCCC5)c4)nc32)n1`
[A] B (EC1.5 1-25 μM)

[Q] Give me measured EC1.5, please, for this compound: `Cc1ccc(-c2ccc3c(n2)N(C(=O)Nc2ccncn2)CCCO3)cn1`
[A] C (EC1.5>25 μM)
